assay: Lipophilicity, logD of compound at pH 7.4 by Chromatography; assay type: physicochemical; settings: buffer
property_measured: chromatographic logD
Note: the reply should be a number with no unit written.

Query: chromatographic logD; subject: CC(C)(O)c1cc(F)c2c(c1)C(=O)N(Cc1ccc(Cl)cn1)[C@@]2(OCC1(N)CC1)c1ccc(Cl)cc1
4

Query: chromatographic logD; subject: [2H]C([2H])(O)C1(C([2H])([2H])O[C@]2(c3ccc(Cl)cc3)c3c(F)cc(C(C)(C)O)cc3C(=O)N2Cc2ccc(C#N)cn2)CC1
3.8

Query: chromatographic logD; subject: CNC(=O)C1(CO[C@]2(c3ccc(Cl)cc3)c3c(F)cc(C(C)(C)O)cc3C(=O)N2Cc2ccc(Cl)cn2)CC1
3.9

Query: chromatographic logD; subject: [2H]C([2H])(O)C1(C([2H])([2H])O[C@]2(c3ccc(Cl)cc3)c3c(F)cc(C(C)(C)O)cc3C(=O)N2Cc2ccc(C#N)cc2)CC1
4.4

Query: chromatographic logD; subject: CC(C)(O)c1cc(F)c2c(c1)C(=O)N(Cc1ccc(Cl)cn1)[C@@]2(OCC1(O)CC1)c1ccc(Cl)cc1
4.3

Query: chromatographic logD; subject: C[C@@H](CO[C@]1(c2ccc(Cl)cc2)c2c(F)cc(C(C)(C)O)cc2C(=O)N1Cc1ccc(Cl)cn1)C(N)=O
3.4

Query: chromatographic logD; subject: CC(C)(O)c1cc(F)c2c(c1)C(=O)N(Cc1ccc(C#N)cn1)[C@@]2(OCC1(CO)CC1)c1ccc(Cl)cc1
3.8

Query: chromatographic logD; subject: [2H]C([2H])(O)C1(C([2H])([2H])O[C@]2(c3ccc(Cl)cc3)c3ccc(C(C)(C)O)cc3C(=O)N2Cc2ccc(Cl)cc2S(C)(=O)=O)CC1
4.3

Query: chromatographic logD; subject: C[C@H](CO[C@]1(c2ccc(Cl)cc2)c2c(F)cc(C(C)(C)O)cc2C(=O)N1Cc1ccc(Cl)cn1)C(N)=O
3.4

---

assay: Lipophilicity, logD of compound at pH 7.4 by Chromatography; assay type: physicochemical; conditions: buffer
Provide the reported chromatographic logD of each item.
Note: the reply should be a number with no unit written.

Query: chromatographic logD; subject: CO[C@]1(c2ccc(Cl)cc2)c2c(F)cc(C(C)(C)O)cc2C(=O)N1Cc1ccc(Cl)cn1
5.3

Query: chromatographic logD; subject: [2H]C([2H])(O)C1(C([2H])([2H])O[C@]2(c3ccc(Cl)cc3)c3c(F)cc(C(C)(C)O)cc3C(=O)N2Cc2ccc(C)nn2)CC1
3

Query: chromatographic logD; subject: CC(C)(O)c1cc(F)c2c(c1)C(=O)N(Cc1ccc(Cl)cn1)[C@@]2(OCC1(C(N)=O)CC1)c1ccc(Cl)cc1
3.8

Query: chromatographic logD; subject: CC(C)(O)c1cc(F)c2c(c1)C(=O)N(Cc1ccc(Cl)cn1)[C@@]2(OCC1(S(C)(=O)=O)CC1)c1ccc(Cl)cc1
4.6

---

test: Oral bioavailability in nonhuman primate at 5 mg/kg by HPLC analysis; type: ADME, organism-based; conditions: primates, in vivo
Provide the reported bioavailability of each item.
Give the quantity in %, number only.

Query: bioavailability; subject: CC(C)(O)c1cc(F)c2c(c1)C(=O)N(Cc1ccc(Cl)cn1)[C@@]2(OCC1(O)CC1)c1ccc(Cl)cc1
66

Query: bioavailability; subject: CC(C)(O)c1cc(F)c2c(c1)C(=O)N(Cc1ccc(C#N)cn1)[C@@]2(OCC1(CO)CC1)c1ccc(Cl)cc1
5.6

Query: bioavailability; subject: CC(C)(O)c1cc(F)c2c(c1)C(=O)N(Cc1ccc(Cl)cn1)[C@@]2(OCC1(C(N)=O)CC1)c1ccc(Cl)cc1
150

Query: bioavailability; subject: [2H]C([2H])(O)C1(C([2H])([2H])O[C@]2(c3ccc(Cl)cc3)c3c(F)cc(C(C)(C)O)cc3C(=O)N2Cc2ccc(C#N)cn2)CC1
31

Values were extracted from ChEMBL document CHEMBL4808170.
